Origin of measurements: ChEMBL document CHEMBL4118248

# System: Rattus norvegicus
# ASSAY_PROCEDURE: Toxicity in Crl:CD(SD) rat assessed as decrease in hematocrit and hemoglobin level at 50 mg/kg/day, po daily via gavage for 14 days measured on day 15 post last dose relative to control
# Type: organism-based
# Parameters: scale not given: the % may be the effect or the level left
# TEST_CONDITIONS: in vivo, 336 h
READOUT_LABEL: Activity

Field Activity (entry `O=C(c1ccc(-n2nnc3cccnc32)cc1)N(c1ncccc1Cl)[C@@H]1CCCNC1` ) reads 9 to 10%

* * *

Measured Papp, listed per entry.
# ASSAY_PROCEDURE: Apparent permeability in RRCK cells
# Assay type: ADME, cell-based, Canis lupus familiaris, MDCKII-LE
# TEST_CONDITIONS: dog, MDCK
Please state the figure in ×10⁻⁶ cm/s; there is no need to write the unit.

Solved entries:
[
  {
    "SMILES_REPR": "O=C(c1ccc(-n2nnc3cccnc32)cc1)N(c1ncccc1Cl)[C@@H]1CCCNC1",
    "READOUT_NUMBER": 15
  },
  {
    "SMILES_REPR": "Cc1cncc(-c2ccc(C(=O)N(c3ncccc3Cl)[C@@H]3CCCNC3)cc2)n1",
    "READOUT_NUMBER": 10.5
  }
]

Field Papp (entry `COc1ccc(CCC(=O)N(c2nccc3ccccc23)[C@@H]2CCCNC2)cc1` ) reads 5.4

Field Papp (entry `Cc1cnc2c(c1)nnn2-c1ccc(C(=O)N(c2ncccc2Cl)[C@@H]2CCCNC2)nc1` ) reads 6.2
